The reported numbers originate from patent US5330994A.

Test system: muscarinic antagonist sites
experiment summary: Binding to muscarinic antagonist sites using [^3 H]quinuclidinyl benzylate (RQNB)
applied conditions: [^3 H]quinuclidinyl benzylate radioligand
# key: entry, value: RQNB % Inhibition @ 1 μM
Answer format: numeric, % implied, no suffix.

Guide cases for RQNB % Inhibition @ 1 μM, answers given:
compound: CCCN1CCC=C(c2cc(-c3ccc(C)cc3)no2)C1
RQNB % Inhibition @ 1 μM / %: 10
//
compound: CCCN1CCC=C(c2cc(-c3ccccc3OC)on2)C1
RQNB % Inhibition @ 1 μM / %: 12
//
compound: CCCN1CCC=C(c2cc(-c3ccccc3C)no2)C1
RQNB % Inhibition @ 1 μM / %: 40
//
compound: CCCN1CCC=C(c2cc(-c3cccc(OC)c3)on2)C1
RQNB % Inhibition @ 1 μM / %: 7
//
compound: CCCN1CCC=C(c2cc(-c3cccc(OC)c3)no2)C1
RQNB % Inhibition @ 1 μM / %: 15
//
compound: CCCN1CCC=C(c2cc(-c3ccccc3C)on2)C1
RQNB % Inhibition @ 1 μM / %: 12

Form field, RQNB % Inhibition @ 1 μM with muscarinic antagonist sites, item CCCN1CCC=C(c2cc(-c3cccc(C)c3)on2)C1 : 10

Form field, RQNB % Inhibition @ 1 μM with muscarinic antagonist sites, item CCCN1CCC=C(c2cc(-c3cccc(C)c3)no2)C1 : 10

----------
measured target: sigma binding site (Rattus norvegicus)
Construct: from tissue
Sequence (Q9R0C9 whole entry): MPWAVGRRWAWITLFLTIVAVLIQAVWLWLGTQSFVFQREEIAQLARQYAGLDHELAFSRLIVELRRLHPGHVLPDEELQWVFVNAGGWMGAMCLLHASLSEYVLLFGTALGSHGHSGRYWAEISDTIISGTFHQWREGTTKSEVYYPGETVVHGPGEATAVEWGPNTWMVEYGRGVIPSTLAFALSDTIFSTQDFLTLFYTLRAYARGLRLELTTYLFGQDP
experiment summary: Sigma binding affinity using [^3 H]-(+)-3-(3'-hydroxyphenyl)-N-(1'-propyl)-piperdine (3PPP)
applied conditions: [^3 H]PPP radioligand
Experimental: Sigma binding affinities are measured using [^3 H]-(+)-3-(3'-hydroxyphenyl)-N-(1'-propyl)-piperdine, referred to in the following Table I as 3PPP. This test is carried out according to the procedures of B. L. Largent, et al, Proc. Natl. Acad. Sci., USA, 1984; 81:5618. The ability of the compounds to bind muscarinic antagonist sites was determined invitro using [^3 H]quinuclidinyl benzylate (RQNB) according to the procedure of M. Watson, J. Pharmacol. Exp. Ther. 1986; 237-411.
measurement name: IC50 (nM)
Answer format: numeric, nM implied, no suffix.

compound: CCCN1CCC=C(c2cc(-c3ccc(C)cc3)on2)C1
assay value: 0.62

compound: CCCN1CCC=C(c2cc(-c3ccc(OC)cc3)no2)C1 [Example 14A]
assay value: 10000

compound: CCCN1CCC=C(c2cc(-c3cccc(OC)c3)no2)C1
assay value: 4

compound: CCCN1CCC=C(c2cc(-c3ccccc3)no2)C1
assay value: 0.78

compound: CCCN1CCC=C(C2=NOC(c3ccc(OC)cc3)C2)C1 (centres unmarked)
assay value: 39.1

compound: CCCN1CCC=C(c2cc(-c3cccc(OC)c3)on2)C1
assay value: 0.1

For this compound ( CCCN1CCC=C(c2cc(-c3cccc(C)c3)on2)C1 ), measured IC50 is 9.9

For this compound ( CCCN1CCC=C(c2cc(-c3ccc(C)cc3)no2)C1 ), measured IC50 is 0.067

For this compound ( CCCN1CCC=C(c2cc(-c3ccccc3)on2)C1 ), measured IC50 is 8.8

For this compound ( CCCN1CCC=C(C2=NOC(c3ccccc3)C2)C1 (centres unmarked) ), measured IC50 is 7.05

For this compound ( CCCN1CCC=C(c2cc(-c3cccc(C)c3)no2)C1 ), measured IC50 is 0.45
